# cAMP released with respect to control, 10 nM peptide, UMR-106 cells annotations
- target.desc: T1, rat PTH-1R (rat PTHR endogenously expressed on UMR-106 rat osteosarcoma cells) (rat, UniProt P25961 27-591)
- T1 sequence (looked up): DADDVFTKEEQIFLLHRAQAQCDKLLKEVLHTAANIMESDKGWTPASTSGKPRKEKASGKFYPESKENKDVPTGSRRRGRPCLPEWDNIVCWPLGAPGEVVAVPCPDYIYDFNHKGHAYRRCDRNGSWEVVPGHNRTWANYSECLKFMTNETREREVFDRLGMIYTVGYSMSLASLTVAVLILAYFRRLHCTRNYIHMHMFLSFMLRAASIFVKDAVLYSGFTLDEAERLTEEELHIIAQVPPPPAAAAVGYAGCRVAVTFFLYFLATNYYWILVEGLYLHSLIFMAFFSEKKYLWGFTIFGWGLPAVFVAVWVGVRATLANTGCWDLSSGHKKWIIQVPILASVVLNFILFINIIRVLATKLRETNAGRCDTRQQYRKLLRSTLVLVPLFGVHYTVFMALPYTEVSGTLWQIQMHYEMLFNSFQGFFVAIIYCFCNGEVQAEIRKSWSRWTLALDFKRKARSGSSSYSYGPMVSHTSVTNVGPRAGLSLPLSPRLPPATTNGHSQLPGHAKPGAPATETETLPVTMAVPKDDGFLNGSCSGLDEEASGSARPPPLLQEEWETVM
- experimental.details: cell-based or functional assay
*1 amine or outer side, *2 acyl side, *3 side chain or, on linkers, in order; H or OH if unused. Where no end group is shown, it is not given here. [ ]: non-standard residue; d: D form. αMe‑APPA = 2-amino-2-methyl-5-phenylpentanoic acid, C[C@@](CCCc1ccccc1)(N[*:1])C(=O)[*:2]; Bip(2'-Et-4'-OMe) = CCc1cc(OC)ccc1-c1ccc(C[C@H](N)C(=O)O)cc1; αMePhe(2,6-F2) = C[C@](N)(Cc1c(F)cccc1F)C(=O)O; αMePhe(2-F) = C[C@](N)(Cc1ccccc1F)C(=O)O; hArg = N=C(N)NCCCC[C@H](N)C(=O)O; Cit = NC(=O)NCCC[C@H](N)C(=O)O; αMeP = C[C@@]1(C(=O)O)CCCN1; Nle = CCCC[C@H](N)C(=O)O; Ac5c = NC1(C(=O)O)CCCC1; Ac3c = NC1(C(=O)O)CC1; Aib = CC(C)(N)C(=O)O

Illustrative cases are given below, each with its answer.
V[Aib]V[Aib]EIQL[Nle]HQ[hArg]A[hArg][Bip(2'-Et-4'-OMe)][αMe‑APPA] [Seq. ID. 905] | 104 percent of control
[Ac5c]V[Aib]EIQ[αMePhe(2,6-F2)][Nle]HQ[αMePhe(2,6-F2)]A[Cit][αMePhe(2-F)] [Seq. ID. 479] | 99 percent of control

Turning now to a further record.
Per the records, this binder ( [Ac3c]V[Aib]EIQ[αMePhe(2,6-F2)][Nle]HQ[hArg][αMeP]K[αMePhe(2,6-F2)] [Seq. ID. 110] ) has cAMP released with respect to control, 10 nM peptide, UMR-106 cells equal to 39 percent of control
